test-protocol: solvent given as SMILES
experimental-conditions: in CCO
assay-endpoint: absorption maximum (nm)
Form entry: value (nm) — number only.

Check out these entries, answers already filled in.
• CCC1=C(C)C2=C(C)c3cc(I)cn3[B-](F)(F)[N+]2=C1C = 506
• CC/[NH+]=c1\cc2oc3cc(NCCC(=O)O)c4ccccc4c3nc-2cc1C = 590
• CCOC(=O)/C=C/c1ccc(N(C)C)cc1 = 363
• COc1ccc(/C=C/C(=O)c2ccccc2O)cc1OC = 359
• O=C(O)c1ccc2ccc3cccc4ccc1c2c34 = 340
• c1csc(-c2cnc(-c3cccs3)c3nonc23)c1 = 460
• O=C([O-])c1ccc(C2=c3cc4c5c(c3Oc3c2cc2c6c3CCCN6CCC2)CCC[N+]=5CCC4)c(C(=O)[O-])c1 = 573
• CCOC(=O)c1cc(C(=O)OCC)c2cccc(O)c2n1 = 369

Given item CCOC(=O)c1sc2nc(-c3ccccc3)c(C)c(C#N)c2c1N , the value recorded as its absorption maximum is 423

Given item CC(=O)c1c2c(cc3c(N(C)C)cccc13)CCC2 , the value recorded as its absorption maximum is 334

Given item CC(=O)OC[C@@H]1O[C@H](n2cnc3c2N=CN2Cc4c[n+](C)c(C)nc4N=C32)[C@@H](O)[C@H]1O , the value recorded as its absorption maximum is 389

Given item CCOC(=O)c1ccccc1-c1c2ccc(=[N+](CC)CC)cc-2oc2c1c(=O)oc1cc3c(cc12)CCCN3C , the value recorded as its absorption maximum is 602

Given item Cc1ccc(/C=N/c2cc(C(C)C)c(O)cc2C)cc1 , the value recorded as its absorption maximum is 344

Given item O=C(N/N=C/c1ccccc1O)c1ccccc1O , the value recorded as its absorption maximum is 400

Given item CC1=CC2=Nc3nc(C)[n+](C)cc3CN2C=C1 , the value recorded as its absorption maximum is 398

Given item [BH3-][P+]1(c2ccccc2)c2ccccc2-c2sc3ccccc3c21 (stereo not given) , the value recorded as its absorption maximum is 323

Given item O=c1c2cc(F)c(O)cc2sc2cc(O)c(F)cc12 , the value recorded as its absorption maximum is 377

Given item CCCCCCCCCCCCCCCC[n+]1ccc(/C=C/c2ccc(N(C)C)cc2)cc1 , the value recorded as its absorption maximum is 484.9

Given item CCCCCCCCCCCCCCCCCCN1C(=O)c2cccc3c(OCCN(C)C)ccc(c23)C1=O , the value recorded as its absorption maximum is 362

Given item C=CCNc1ccc2ccc3oc4cc(=[N+]5CCCC5)ccc-4nc3c2c1 , the value recorded as its absorption maximum is 570

Given item CCC1=C(C)C2=Cc3cc(I)c(I)n3[B-](F)(F)[N+]2=C1C , the value recorded as its absorption maximum is 529

----------
Below: a set of entries, each annotated with reported absorption maximum.
test-protocol: solvent given as SMILES
experimental-conditions: in CC(C)=O
Your reply should be a number followed by the unit it is expressed in.

Check out these entries, answers already filled in.
• CCC1=C(C)C2=Cc3cc(I)c(I)n3[B-](F)(F)[N+]2=C1C = 524.5 nm
• CCCCCCCCC1(CCCCCCCC)c2cc(C=O)ccc2-c2ccc(/C=C/c3ccc(N(c4ccccc4)c4ccccc4)cc3)cc21 = 409 nm

Here is the next item to consider.
Given item C#CCNC1=C2C=CC=[N+]2[B-](F)(F)n2cccc21 , the value recorded as its absorption maximum is 406 nm

----------
test-protocol: solvent given as SMILES
experimental-conditions: in CS(C)=O
assay-endpoint: absorption maximum (nm)
Form entry: value (nm) — number only.

- CCn1c2ccccc2c2cc(/C=C3\C(=O)c4ccccc4S3(=O)=O)ccc21: 454

Given item Cc1ccc(-n2c(-c3ccccc3O)nc(-c3ccccc3O)c2-c2ccccc2O)cc1 , the value recorded as its absorption maximum is 306

Given item CCCCCCCCC1(CCCCCCCC)c2cc(C=O)ccc2-c2ccc(/C=C/c3ccc(N(c4ccccc4)c4ccccc4)cc3)cc21 , the value recorded as its absorption maximum is 408

Given item CN(C)c1ccc(/C=C/c2nc3c4ccccc4c4ccccc4c3[nH]2)cc1 , the value recorded as its absorption maximum is 396

Given item COC(=O)/C(C#N)=C/c1cn(-c2ccccc2)nc1-c1ccc([N+](=O)[O-])cc1 , the value recorded as its absorption maximum is 330

Given item CC1=[N+]2C(=c3c4c5ccccc5cc5cccc(c6cc(C)n(c36)[B-]2(F)F)c54)C=C1 , the value recorded as its absorption maximum is 587

Given item CC(C)[Si]1(C(C)C)c2cc(C#N)ccc2-c2ccc(N(c3ccccc3)c3ccccc3)cc21 , the value recorded as its absorption maximum is 387

Given item CCN(CC)c1ccc2cc(/C=C(\C#N)c3nc4ccccc4s3)c(=O)oc2c1 , the value recorded as its absorption maximum is 525

Given item C/C(=N\Nc1ccc(C#N)cc1)c1ccccn1 , the value recorded as its absorption maximum is 351

Given item CCC1=C(C)C(=O)n2c1cc1c(CCC(=O)O)c(C)c(C)n1c2=O , the value recorded as its absorption maximum is 421

----------
test-protocol: solvent given as SMILES
experimental-conditions: in CCO
Below: a set of entries, each annotated with reported absorption maximum.
Form entry: value (nm) — number only.

Check out these entries, answers already filled in.
* CC(C)[Si]1(C(C)C)c2cc(N(C)C)ccc2-c2ccc(C(F)(F)F)cc21 | 335
* C#Cc1ccc2c(C)cc(=O)oc2c1 | 325
* Cc1cc(C)nc(N)n1 | 297
* COc1ccc2c(c1)-c1cc(OC)ccc1C2=O | 382
* Cc1ccc(C(=O)OCc2ccc3c4cccc5cccc(c6cccc2c63)c54)cc1 | 438

Given item N#C/C(=C\c1ccc(C#N)cc1)c1nc(-c2ccccc2)cs1 , the value recorded as its absorption maximum is 375

Given item CCNc1cc2oc3c/c(=[NH+]\CC)c(C)cc-3c(-c3ccccc3C(=O)OCC)c2cc1C , the value recorded as its absorption maximum is 527

Given item COc1cc(F)c(C(=O)c2cc(F)c(OC)cc2F)cc1F , the value recorded as its absorption maximum is 301

----------
test-protocol: solvent given as SMILES
experimental-conditions: in CC#N
Below: a set of entries, each annotated with reported absorption maximum.

• COc1ccc(/C=C/C2=[O+][B-](F)(F)OC(/C=C/c3ccc(OC)c4ccccc34)=C2c2ccccc2)c2ccccc12 = 550 nm

Given item COc1cc(-c2nnc(-c3ccc4ccc5cccc6ccc3c4c56)o2)cc(OC)c1OC , the value recorded as its absorption maximum is 391 nm

----------
test-protocol: solvent given as SMILES
experimental-conditions: in ClC(Cl)Cl
assay-endpoint: absorption maximum (nm)
Form entry: value (nm) — number only.

Check out these entries, answers already filled in.
• Clc1ccc(-c2nc(-c3ccccc3)c(N(c3ccccc3)c3ccccc3)s2)cc1 = 371
• CCC1=C(C)C2=C(c3cc(C4=C5C(C)=C(CC)C(C)=[N+]5[B-](F)(F)n5c(C)c(CC)c(C)c54)cc(C4=C5C(C)=C(CC)C(C)=[N+]5[B-](F)(F)n5c(C)c(CC)c(C)c54)c3)c3c(C)c(CC)c(C)n3[B-](F)(F)[N+]2=C1C = 538
• N=c1oc2cccc3c4c(-c5ccccc5)oc5cccc(c(c1-c1ccccc1)c23)c54 = 397

Given item c1ccc2c(c1)oc1nc3oc4ccc(-n5c6ccccc6c6cc(-n7c8ccccc8c8ccccc87)ccc65)cc4c3cc12 , the value recorded as its absorption maximum is 354

----------
Below: a set of entries, each annotated with reported absorption maximum.
test-protocol: solvent given as SMILES
experimental-conditions: in CO
Form entry: value (nm) — number only.

Check out these entries, answers already filled in.
- C(=C\c1nc2ccccc2s1)/c1ccccc1: 340
- [C-]#[N+]c1ccc(-c2ccc(N)cc2)cc1: 308
- O=C1Nc2ccccc2/C1=C/C(=O)c1ccc(Cl)cc1: 340
- C1=Cc2ccccc2Cc2ccccc21: 285

Here is the next item to consider.
Given item CN(C)c1ccc(C2=Cc3ccc4ccccc4[n+]3[B-](F)(F)O2)cc1 , the value recorded as its absorption maximum is 468

----------
Below: a set of entries, each annotated with reported absorption maximum.
test-protocol: solvent given as SMILES
experimental-conditions: in Cc1ccccc1
Form entry: value (nm) — number only.

Check out these entries, answers already filled in.
* CCOC(=O)COc1ccc(/C=C/C2=C3c4ccccc4C(c4ccc[nH]4)=[N+]3[B-](F)(F)n3ccc(C)c32)cc1 | 592
* CCOC(=O)c1csc2[n+]1[B-](F)(F)OC(c1ccc(N(C)C)cc1)=N2 | 406
* c1ccc2c(c1)CC1(C2)c2cc(N3c4ccccc4Sc4ccccc43)ccc2-c2ccc(N3c4ccccc4Sc4ccccc43)cc21 | 310

Given item CC(C)(C)c1ccc(-c2sc3c(-c4ccc(C(C)(C)C)cc4)c4n(c3c2-c2ccc(C(C)(C)C)cc2)[B-](F)(F)[N+]2=Cc3c(-c5ccc(C(C)(C)C)cc5)c5sc(-c6ccc(C(C)(C)C)cc6)c(-c6ccc(C(C)(C)C)cc6)c5n3[B-](F)(F)[N+]2=C4)cc1 , the value recorded as its absorption maximum is 596
